System: MDA-MB-453 (breast cancer cell)
Assay: Cell viability assay (Promega CellTiter-Glo), inhibitory effect on MDA-MB-453
Type: cell-based
Details: Homo sapiens, 72 h, 3 days of culture
Rule for this label: Met means IC50 is less than 0.9 µM; Not met means IC50 is at least 0.9 µM.

COc1ccc2c(CCCc3ccccc3)c3[n+](cc2c1OC)CCc1cc2c(cc1-3)OCO2 Met

Regarding CCCCCc1c2[n+](cc3c(OC)c(OC)ccc13)CCc1cc3c(cc1-2)OCO3 , kindly confirm whether its IC50 is beneath 0.9 µM.
Met

Identify whether the compound CCCCCCCCCCCC(=O)Oc1c(OC)ccc2cc3[n+](cc12)CCc1cc2c(cc1-3)OCO2 records IC50 below 0.9 µM.
Not met

# TODO verify IC50 < 0.9 µM strictly for this compound: COc1ccc2cc3[n+](cc2c1OCCCCOc1ccccc1)CCc1cc2c(cc1-3)OCO2
Met

Report whether reported IC50 is lower than 0.9 µM (strictly) for CCCCc1c2[n+](cc3c(OC)c(OC)ccc13)CCc1cc3c(cc1-2)OCO3
Met

IC50 under 0.9 µM? Item: CCCCCCCc1c2[n+](cc3c(OC)c(OC)ccc13)CCc1cc3c(cc1-2)OCO3
Met

Is 0.9 µM strictly greater than the compound's reported IC50? compound: COc1ccc2c(CCC(C)C)c3[n+](cc2c1OC)CCc1cc2c(cc1-3)OCO2
Not met
